Reference source: the supplement of paper PMC9112550

System: Escherichia coli TOP10;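 also: peptides expressed intracellularly from a pBAD plasmid library in pooled LB shake-flask culture, induced with 0.3% L-arabinose, DNA abundance read by NGS, three biological replicates, DESeq2 with apeglm shrinkage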
Method: shrunken log2 fold change of peptide-encoding DNA abundance (4.5 h post-induction vs induction); higher = less antimicrobial activity (less host growth inhibition)
Condition Info: time post-induction: 4.5 h; library: site-saturation at positions 5, 18, 19, 20
Each record here notes measured shrunken log2 fold change.
Number, no unit, nothing else.

// solved cases for shrunken log2 fold change follow
RRIRSRPPRLPRPRPRPQMYPRP ... -0.159
RRIRTRPPRLPRPRPRPYNCPRP ... -0.168
RRIRERPPRLPRPRPRPMWAPRP ... -0.122
RRIRYRPPRLPRPRPRPQEEPRP ... -0.0969
RRIRHRPPRLPRPRPRPHHQPRP ... -0.364

Now turn to the next sequence.
Exam item: Which shrunken log2 fold change value is on record for `RRIRMRPPRLPRPRPRPADCPRP` ?
Marked response: 0.918
